I'd be grateful if you could share measured pIC50 for these entries.
- Assay System: HLA-A*0301 on mild-acid treated EKR cells (human)
- Assay Text: competition vs FL-reference peptide, EKR cells, 4°C 24 hr
Give bare numbers, as −log10 of the molar value.

The cases that follow already have their pIC50 on record.
WMGYELHPDK [HIV-1 pol 388-397] : 4.85
GIGGYSAGER [HIV-1 pol 909-918] : 5.19

Shifting focus to the binder that follows.
[Q] I am curious: what pIC50 value has been reported for ELAENREILK [HIV-1 pol 461-470] ?
[A] 4.85
